# tested_system: rh beta tryptase (Homo sapiens, UniProt Q15661)
# Sequence (Q15661 31-275): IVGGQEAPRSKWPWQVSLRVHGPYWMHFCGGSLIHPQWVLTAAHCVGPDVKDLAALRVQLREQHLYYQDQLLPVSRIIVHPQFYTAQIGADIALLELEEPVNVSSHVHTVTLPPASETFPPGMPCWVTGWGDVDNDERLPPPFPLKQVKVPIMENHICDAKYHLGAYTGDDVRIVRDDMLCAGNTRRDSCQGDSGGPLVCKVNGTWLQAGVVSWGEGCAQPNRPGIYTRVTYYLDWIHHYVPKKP
# assay_details: tryptase inhibition in vitro test (cleavage of N-p-tosyl-Gly-Pro-Lys-para-nitroaniline, p-nitroaniline measured at 405 nm)
# experimental_setup: rh beta tryptase 0.91 U/ml, substrate 0.6 mM, Tris HCl buffer with calcium and heparin, pH 7.4, 37° C., 5 minutes incubation; read-out: Tryptase-inhibiting activity
pIC50: −log10 of the molar value. Structures can show the parent of a compound that is named as a salt.
result_type: pIC50

- Cn1c(CCc2ccc(C(=N)N)cc2)nc2cc(N(Cc3cccc4ccccc34)C(=O)CN3CCC(Nc4ccccc4Cl)CC3)ccc21 [Example 12, dihydrochloride]: 8.52 to 9.30
- Cn1c(CCc2ccc(C(=N)N)cc2)nc2cc(N(Cc3ccccc3)C(=O)CN3CCC(Nc4ccccc4Cl)CC3)ccc21 [Example 58, dihydrochloride]: 8.52 to 9.30
- CN(C(=O)CN1CCC(Nc2ccccc2)CC1)c1ccc2c(c1)nc(CCc1ccc(C(=N)N)cc1)n2C [Example 108, dihydrochloride]: 7.52 to 8.40

INPUT: Look up pIC50 for this molecule: CN(C(=O)CN1CCC(Nc2ccc(C(F)(F)F)cc2Br)CC1)c1ccc2c(c1)nc(CCc1ccc(C(=N)N)cc1)n2C [Example 67, dihydrochloride]
OUTPUT: 7.52 to 8.40

INPUT: Look up pIC50 for this molecule: CN(C(=O)CN1CCC(Nc2ccc(Br)cc2Cl)CC1)c1ccc2c(c1)nc(CCc1ccc(C(=N)N)cc1)n2C [Example 62, dihydrochloride]
OUTPUT: 8.52 to 9.30

INPUT: Look up pIC50 for this molecule: Cn1c(CCc2ccc(C(=N)N)cc2)nc2cc(NC(=O)CN3CCC(Nc4ccccn4)CC3)ccc21 [Example 52, dihydrochloride]
OUTPUT: 6.00 to 7.51

====

# tested_system: UniProtKB Q15661
# assay_details: tryptase inhibition in vitro test (cleavage of N-p-tosyl-Gly-Pro-Lys-para-nitroaniline, p-nitroaniline measured at 405 nm)
# experimental_setup: rh beta tryptase 0.91 U/ml, substrate 0.6 mM, Tris HCl buffer with calcium and heparin, pH 7.4, 37° C., 5 minutes incubation; read-out: Tryptase-inhibiting activity
# Experimental: The compounds according to the invention are characterised by their tryptase-inhibiting activity. This ability to inhibit tryptase was investigated using the test described below. The measurement is carried out in Tris HCl buffer (100 mM), which additionally contains calcium (5 mM) and heparin (100 mg/ml), at pH 7.4. […] The substrate is digested with tryptase to form p-nitroaniline which can be measured at 405 nm. […]
pIC50: −log10 of the molar value. Where a name gives a salt, the structure may show the parent alone.
List of pIC50 values.

Recorded pIC50, per entry:
• CN(CCCO)C1CCN(CC(=O)N(Cc2cccc3ccccc23)c2ccc3c(c2)nc(CCc2ccc(C(=N)N)cc2)n3C)CC1 [Example 2, Trihydrochloride] = 7.52 to 8.40
• CN(C(=O)CN1CCC(Nc2ccc(C(C)(C)C)cc2Cl)CC1)c1ccc2c(c1)nc(CCc1ccc(C(=N)N)cc1)n2C [Example 69, dihydrochloride] = 6.00 to 7.51
• CN(C(=O)CN1CCC(Nc2ccccc2F)CC1)c1ccc2c(c1)nc(CCc1ccc(C(=N)N)cc1)n2C [Example 36, dihydrochloride] = 8.52 to 9.30
• CCOC(=O)CCN(C(=O)CN1CCC(Nc2ccccn2)CC1)c1ccc2c(c1)nc(CCc1ccc(C(=N)N)cc1)n2C [Example 53, dihydrochloride] = 7.52 to 8.40
• Cn1c(CCc2ccc(C(=N)N)cc2)nc2cc(N(Cc3cccc4ccccc34)C(=O)CN3CCC(Cc4ccccc4)CC3)ccc21 [Example 9, dihydrochloride] = 7.52 to 8.40
• CCOC(=O)CCN(C)C1CCN(CC(=O)N(Cc2cccc3ccccc23)c2ccc3c(c2)nc(CCc2ccc(C(=N)N)cc2)n3C)CC1 [Example 21, trihydrochloride] = 7.52 to 8.40
• Cn1c(CCc2ccc(C(=N)N)cc2)nc2cc(N(Cc3cccc4ccccc34)C(=O)CN3CCC(Nc4ccc(OCc5ccccc5)cc4)CC3)ccc21 [Example 17, dihydrochloride] = 7.52 to 8.40
• Cc1ccc(NC2CCN(CC(=O)N(C)c3ccc4c(c3)nc(CCc3ccc(C(=N)N)cc3)n4C)CC2)c(Cl)c1 [Example 61, dihydrochloride] = 8.52 to 9.30
• CN(C(=O)CN1CCC(Nc2ccccc2C(C)(C)C)CC1)c1ccc2c(c1)nc(CCc1ccc(C(=N)N)cc1)n2C [Example 64, dihydrochloride] = 7.52 to 8.40
• CN(C(=O)CN1CCC(Nc2ccccc2I)CC1)c1ccc2c(c1)nc(CCc1ccc(C(=N)N)cc1)n2C [Example 37, dihydrochloride] = 8.52 to 9.30

INPUT: For UniProtKB Q15661, provide pIC50 of Cn1c(CCc2ccc(C(=N)N)cc2)nc2cc(N(Cc3cccc4ccccc34)C(=O)CN3CCC(Nc4ccncc4)CC3)ccc21 [Example 27, dihydrochloride] please.
OUTPUT: 7.52 to 8.40

INPUT: For UniProtKB Q15661, provide pIC50 of Cn1c(CCc2ccc(C(=N)N)cc2)nc2cc(N(Cc3cccc4ccccc34)C(=O)CN3CCC(NC(=O)c4ccccc4)CC3)ccc21 [Example 8, dihydrochloride] please.
OUTPUT: 7.52 to 8.40
